Measurement target: hα9α10 nAChRs (Homo sapiens, UniProt Q9GZZ6+Q9UGM1)
Construct: host or cells: Xenopus laevis oocytes, cRNA-injected (α9:α10 cRNA ratio 1:1)
Sequence (Q9UGM1 26-479 limits assumed): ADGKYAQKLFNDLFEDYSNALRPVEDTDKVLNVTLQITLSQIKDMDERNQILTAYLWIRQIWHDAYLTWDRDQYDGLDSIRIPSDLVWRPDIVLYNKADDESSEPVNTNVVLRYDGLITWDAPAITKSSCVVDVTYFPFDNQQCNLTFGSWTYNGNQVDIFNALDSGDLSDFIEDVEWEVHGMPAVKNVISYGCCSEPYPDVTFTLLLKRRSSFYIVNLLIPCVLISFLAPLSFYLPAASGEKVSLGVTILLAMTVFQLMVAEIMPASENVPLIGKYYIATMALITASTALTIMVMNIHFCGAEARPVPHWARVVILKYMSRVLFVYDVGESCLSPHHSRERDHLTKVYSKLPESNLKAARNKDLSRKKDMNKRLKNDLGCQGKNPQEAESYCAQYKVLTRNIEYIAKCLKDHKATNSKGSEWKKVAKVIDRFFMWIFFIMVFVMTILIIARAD
Sequence (Q9GZZ6 25-450): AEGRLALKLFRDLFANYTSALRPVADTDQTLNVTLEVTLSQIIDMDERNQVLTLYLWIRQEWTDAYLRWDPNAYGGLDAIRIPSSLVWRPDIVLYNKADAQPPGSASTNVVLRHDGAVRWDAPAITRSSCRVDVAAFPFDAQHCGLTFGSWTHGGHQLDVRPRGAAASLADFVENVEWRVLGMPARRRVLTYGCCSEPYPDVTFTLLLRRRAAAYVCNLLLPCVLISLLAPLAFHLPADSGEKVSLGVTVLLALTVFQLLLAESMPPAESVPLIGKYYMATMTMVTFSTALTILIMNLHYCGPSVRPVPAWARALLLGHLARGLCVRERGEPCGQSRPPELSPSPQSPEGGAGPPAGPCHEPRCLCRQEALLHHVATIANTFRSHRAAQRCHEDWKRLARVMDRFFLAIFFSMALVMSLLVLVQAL
Assay info: Two-electrode voltage clamp, compound-evoked currents (compound applied alone) at hα9α10 nAChRs in Xenopus laevis oocytes
Type: cell-based
Assay setup: compound applied alone (300 pM to 30 μM), normalized to response at highest concentration, read-out: EC50
Source text: The protocols were approved by the Animal Ethics Committees of the Victor Chang Cardiac Research Institute, Sydney, and the University of Wollongong (project number AE 20/17). Human α9 and α10 nAChR clones were obtained from OriGene (Rockville, MD, USA) and subcloned into the pT7TS vector. The human α7 nAChR clone, in the plasmid pMXT, was kindly provided by J. Lindstrom (University of Pennsylvania, USA). […]
API: label(entry) gives true if the entry's EC50 is strictly smaller than 400 nM; on equality or larger values it gives false.

Use these answered entries as a reference point.
[
  {
    "Compound": "C[N+](C)(CCCCOc1ccc(/C=C/c2ccccc2)cc1)C1CCCCC1.[I-] [Compound 15]",
    "Measurement target": "hα9α10 nAChRs (Homo sapiens, UniProt Q9GZZ6+Q9UGM1)",
    "Class assignment": "false"
  },
  {
    "Compound": "C[N+](C)(CCOc1ccc(/C=C/c2ccccc2)cc1)Cc1ccccc1.[Br-] [Compound 10]",
    "Measurement target": "hα9α10 nAChRs (Homo sapiens, UniProt Q9GZZ6+Q9UGM1)",
    "Class assignment": "false"
  }
]

Now turn to the next compound.
For CC[N+](CC)(CC)CCOc1ccc(CCc2ccccc2)cc1 [Compound 4] , is the recorded EC50 below the cut-off of 400 nM?
false

The origin of these recorded values is paper PMC12751000.
